The measured values listed here are drawn from ChEMBL document CHEMBL1135743.

system.tested: Adenosine receptor A2a (Homo sapiens, UniProt P29274)
Sequence (P29274 whole entry): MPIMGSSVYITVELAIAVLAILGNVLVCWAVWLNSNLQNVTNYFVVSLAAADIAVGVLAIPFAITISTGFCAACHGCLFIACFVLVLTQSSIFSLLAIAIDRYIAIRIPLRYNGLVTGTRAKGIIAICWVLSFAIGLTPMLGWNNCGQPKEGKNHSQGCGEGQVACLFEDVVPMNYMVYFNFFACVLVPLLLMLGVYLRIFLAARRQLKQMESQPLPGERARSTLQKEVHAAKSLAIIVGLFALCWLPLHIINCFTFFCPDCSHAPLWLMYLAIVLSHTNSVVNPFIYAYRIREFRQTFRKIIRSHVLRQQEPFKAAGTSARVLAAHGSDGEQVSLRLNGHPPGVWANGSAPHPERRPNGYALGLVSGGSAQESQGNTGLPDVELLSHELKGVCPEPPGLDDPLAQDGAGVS
method: Ability to displace [3H]- ZM-241385 from CHO cell membrane expressing the human Adenosine A2A receptor at a concentration of 10 uM
Type: cell membranes
recorded.metric: Displacement (%)

A. CCCn1c(=O)c2c(nc3cc(OC)ccn32)n(Cc2ccccc2)c1=O
B. COc1ccn2c(c1)nc1c2c(=O)[nH]c(=O)n1Cc1ccccc1
Select the item whose Displacement value is smaller, choosing between A and B . Refer to your chosen entry by its label in the reply.
B

###

Protein target, amino acids: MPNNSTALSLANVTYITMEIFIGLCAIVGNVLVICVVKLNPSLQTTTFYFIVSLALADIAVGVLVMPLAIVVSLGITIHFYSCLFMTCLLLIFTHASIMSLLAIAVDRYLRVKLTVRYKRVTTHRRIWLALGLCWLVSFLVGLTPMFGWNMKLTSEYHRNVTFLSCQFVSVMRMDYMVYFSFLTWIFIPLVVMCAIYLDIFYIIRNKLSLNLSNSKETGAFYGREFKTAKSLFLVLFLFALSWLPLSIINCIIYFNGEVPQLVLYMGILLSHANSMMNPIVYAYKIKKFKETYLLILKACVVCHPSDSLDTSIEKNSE
recorded.metric: Ki (nM)

The cases that follow already have their Ki on record.
COc1ccn2c(c1)nc1c2c(=O)[nH]c(=O)n1Cc1ccccc1	210
CCCn1c(=O)c2c(nc3cc(C(C)(C)C)ccn32)n(Cc2ccccc2)c1=O	950
CC(C)(C)c1ccn2c(c1)nc1c2c(=O)[nH]c(=O)n1Cc1ccccc1	555

P. CCCn1c(=O)c2c(nc3ccccn32)n(Cc2ccc(OC)cc2)c1=O
Q. COc1ccc(Cn2c(=O)c3c(nc4ccccn43)n(Cc3ccccc3)c2=O)cc1
Between P and Q , whose recorded Ki is greater? Answer by quoting the chosen item's label.
Q
(Q: 213 nM, P: 8.3 nM)

1. CCCn1c(=O)c2c(nc3ccccn32)n(C)c1=O
2. O=c1[nH]c(=O)n(Cc2ccccc2)c2nc3ccccn3c12
Look at 1 and 2 . Which one has the lower recorded Ki number? Mark your answer with the label of the selected entry.
2
